These data points were gathered from FireProtDB (doi:10.1111/j.1432-1033.1991.tb16033.x).

B1: Ribonuclease HI, P0A7Y4 (parent)
chain: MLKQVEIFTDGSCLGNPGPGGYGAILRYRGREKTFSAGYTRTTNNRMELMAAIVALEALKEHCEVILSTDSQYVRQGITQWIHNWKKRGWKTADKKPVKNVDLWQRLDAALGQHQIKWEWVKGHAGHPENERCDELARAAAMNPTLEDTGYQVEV

- Variants of: B1
- measurement.context: Escherichia coli (strain K12); pH 5.5; 25 °C; GdnHCl; Fluorescence; Sodium acetate 20 mM; NaCl 0.1 M; reversible: yes; structure 2RN2; whole UniProt chain shown
unfolding free energy values, listed per item
Kindly provide the numeric value in kcal/mol only, without the unit symbol.

1) H124A : 9.74

Which unfolding free energy value belongs to H127A ?
8.68

Entry to check: H62A
9.64

Ok, now H114A
6.63
